Measured on: T1, cynomolgus monkey CGRP receptor (cynomolgus monkey, UniProt A0A2K5VQ71 34-472)
T1 construct: whole, on cells; Presented as detergent-solubilized lysate of HEK cells expressing the cynomolgus receptor; also called Cyno CGRP Receptor; Cynomolgus Monkey CGRP Receptor/HEK detergent-solubilized cell lysate
Protocol notes: yeast-displayed Fab, FACS, detergent-solubilized lysate of cynomolgus CGRP receptor/HEK cells vs blank cells
Property measured: Cyno CGRP Receptor/Blank Cells Specific Binding (ratio)
Lab book: enter the figure in ratio, no units written.

Query: What value of Cyno CGRP Receptor/Blank Cells Specific Binding has been reported for the following binder? 4E4.2 parental Fab, yeast-displayed (Fab, V domains shown, also called parental 4E4.2 Fab) VH: QVQLVESGGGVVQPGRSLRLSCAASGFTFSSFGMHWVRQAPGKGLEWVAVISFDGSIKYSVDSVKGRFTISRDNSKNTLFLQMNSLRAEDTAVYYCARDRLNYYESSGYYHYKYYGMAVWGQGTTVTVSS VL: QSVLTQPPSVSAAPGQKVTISCSGSSSNIGNNYVSWYQQLPGTAPKLLIYDNNKRPSGIPDRFSGSKSGTSATLGITGLQTGDEADYYCGTWDSRLSAVVFGGGTKLTVLG
Response: 1.9
